Source listed as patent US9409914B2.

- ASSAY TARGET: GCN2 (Homo sapiens, UniProt Q9P2K8)
- Sequence (Q9P2K8 whole entry): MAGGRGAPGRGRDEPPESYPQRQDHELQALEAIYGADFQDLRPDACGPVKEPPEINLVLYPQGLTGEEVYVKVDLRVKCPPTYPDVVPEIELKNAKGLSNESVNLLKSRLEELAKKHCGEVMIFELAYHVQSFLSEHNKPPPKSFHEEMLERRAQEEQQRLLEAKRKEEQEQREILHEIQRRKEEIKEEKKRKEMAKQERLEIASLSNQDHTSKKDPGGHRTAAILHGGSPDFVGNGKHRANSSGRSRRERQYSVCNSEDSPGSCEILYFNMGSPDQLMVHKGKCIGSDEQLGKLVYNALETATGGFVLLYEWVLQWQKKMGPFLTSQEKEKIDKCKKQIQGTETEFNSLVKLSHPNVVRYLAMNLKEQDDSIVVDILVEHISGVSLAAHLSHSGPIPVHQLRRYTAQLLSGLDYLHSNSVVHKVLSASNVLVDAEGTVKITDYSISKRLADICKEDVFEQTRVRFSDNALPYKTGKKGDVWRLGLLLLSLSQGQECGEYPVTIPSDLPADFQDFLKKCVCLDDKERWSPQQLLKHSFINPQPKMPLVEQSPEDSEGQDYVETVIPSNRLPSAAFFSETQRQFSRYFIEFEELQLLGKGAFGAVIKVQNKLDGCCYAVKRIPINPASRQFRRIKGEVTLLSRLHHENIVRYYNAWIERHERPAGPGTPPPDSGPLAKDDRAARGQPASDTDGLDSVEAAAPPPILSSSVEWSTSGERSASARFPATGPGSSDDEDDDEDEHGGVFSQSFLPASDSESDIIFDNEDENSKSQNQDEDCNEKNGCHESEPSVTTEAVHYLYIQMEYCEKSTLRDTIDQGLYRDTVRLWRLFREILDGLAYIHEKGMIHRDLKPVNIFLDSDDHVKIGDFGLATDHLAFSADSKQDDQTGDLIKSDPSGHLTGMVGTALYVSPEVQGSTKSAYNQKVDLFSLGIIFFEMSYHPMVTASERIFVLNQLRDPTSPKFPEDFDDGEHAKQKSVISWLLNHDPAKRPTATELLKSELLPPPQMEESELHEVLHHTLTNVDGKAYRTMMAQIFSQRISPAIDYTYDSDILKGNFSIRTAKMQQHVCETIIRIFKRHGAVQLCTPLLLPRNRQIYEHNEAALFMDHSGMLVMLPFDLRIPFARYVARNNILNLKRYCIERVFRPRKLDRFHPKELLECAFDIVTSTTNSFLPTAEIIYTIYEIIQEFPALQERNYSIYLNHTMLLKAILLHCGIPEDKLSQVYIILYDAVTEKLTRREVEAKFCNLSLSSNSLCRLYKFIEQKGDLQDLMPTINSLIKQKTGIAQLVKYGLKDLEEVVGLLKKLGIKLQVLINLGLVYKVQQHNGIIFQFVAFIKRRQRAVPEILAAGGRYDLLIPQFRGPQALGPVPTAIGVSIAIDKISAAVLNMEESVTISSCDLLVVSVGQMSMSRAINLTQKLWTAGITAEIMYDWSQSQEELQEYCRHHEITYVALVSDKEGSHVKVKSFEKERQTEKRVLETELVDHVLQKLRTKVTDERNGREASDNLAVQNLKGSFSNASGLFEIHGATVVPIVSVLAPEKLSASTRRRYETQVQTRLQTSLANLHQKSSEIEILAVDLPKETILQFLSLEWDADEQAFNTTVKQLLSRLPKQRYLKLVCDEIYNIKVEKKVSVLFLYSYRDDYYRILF
- TEST PROTOCOL: Cellular assay for GCN2 activity (phospho-eIF2alpha immunocytochemistry, tryptophanol-stimulated U2OS cells)
- Type: cell-based
- Set-up: endogenous in cells; host or cells: U2OS
- EXPERIMENTAL SETUP: 2 hours compound, then 600 μM tryptophanol 30 minutes, anti-phospho-eIF2alpha, read-out: IC50 GCN2 (cell assay)
# maps each entry to its IC50

Reference set, count: 4
{"COMPOUND": "O[C@H]1CC[C@H](n2cc(Nc3ncc4nnn(-c5ccc(Cl)c(F)c5)c4n3)cn2)CC1 [Compound A103]", "RESULT": "< 0.3 µM"}
{"COMPOUND": "CCn1cc(Nc2ncc3nnn(-c4cccc(C(N)=O)c4)c3n2)cn1 [Compound A68]", "RESULT": "3 to 50 µM"}
{"COMPOUND": "CCn1cc(Nc2ncc3nnn(-c4ccc5[nH]ncc5c4)c3n2)cn1 [Compound A91]", "RESULT": "0.3 to 3 µM"}
{"COMPOUND": "CN1CCC(n2cc(Nc3ncc4nnn(-c5ccc6[nH]c(C(F)(F)F)nc6c5)c4n3)cn2)CC1 [Compound A95]", "RESULT": "3 to 50 µM"}

q: Field request: IC50 | item: COCCOc1ccc(-n2nnc3cnc(Nc4cnn(C5CCNC5)c4)nc32)cc1 (stereo not drawn) [Compound A96]
a: 0.3 to 3 µM

q: Would you mind telling me what IC50 value was observed for OC[C@@H]1C[C@H]1Cn1cc(Nc2ncc3nnn(-c4ccc(Cl)c(F)c4)c3n2)cn1 (relative stereo) [Compound A98] ?
a: 0.3 to 3 µM

q: Entry CN1CCC(n2cc(Nc3ncc4nnn(-c5ccc(N6CCCC6=O)cc5)c4n3)cn2)CC1 [Compound A48] has what IC50?
a: 0.3 to 3 µM

q: Suppose we examine the compound CN1CCC(n2cc(Nc3ncc4nnn(-c5ccc(F)c(F)c5)c4n3)cn2)CC1 [Compound A120] ; what IC50 value has been reported?
a: 3 to 50 µM

q: Tell me the measured IC50 of CCn1cc(Nc2ncc3nnn(-c4ccc(C(=O)OC)cc4)c3n2)cn1 [Compound A117] , please.
a: 0.3 to 3 µM

q: Fill in the blank: the reported IC50 of CN1CCC(n2cc(Nc3ncc4nnn(-c5ccc6cccnc6c5)c4n3)cn2)CC1 [Compound A73] is ____.
a: 3 to 50 µM

q: Could you tell me which IC50 is on file for NC(=O)c1ccc(-n2nnc3cnc(Nc4cnn(C5CCOCC5)c4)nc32)cc1 [Compound A80] ?
a: < 0.3 µM
